All values here come from PubChem BioAssay AID248.

tested on: L1210 leukemia ip in BDF1 mice, survival T/C; assay: NCI In Vivo Anticancer Drug Screen. Data for tumor model L1210 Leukemia (intraperitoneal) in B6D2F1 (BDF1) mice; conditions: endpoint: mean survival time; dose: 75.0 mg/kg/injection; schedule: Q01DX001 (ip); vehicle: carboxymethylcellulose (CMC); higher = longer survival
Toxic doses and inconclusive results are not listed.
parameter: T/C

Some solved cases for reference:
compound | tgt | T/C
C#C/C=C/CC1OC(C(Br)CC)CC2OC1CC2Br (stereo not drawn) | L1210 leukemia ip in BDF1 mice, survival T/C | 94 % of control
CC1=CC(C)(C(Cl)(Cl)Cl)C=C/C1=N\OC(C)C(=O)O (stereo not drawn) | L1210 leukemia ip in BDF1 mice, survival T/C | 95 % of control

# ---- query compound ----
Ask | # get_value(readout='T/C', item= NC(CSC1c2ccccc2-c2ccccc21)C(=O)O (stereo not drawn) )
Reply | 96 % of control

* * *

tested on: L1210 leukemia ip in BDF1 mice, survival T/C; assay: NCI In Vivo Anticancer Drug Screen. Data for tumor model L1210 Leukemia (intraperitoneal) in B6D2F1 (BDF1) mice; conditions: endpoint: mean survival time; dose: 100.0 mg/kg/injection; schedule: Q01DX009 (ip); vehicle: saline
Inconclusive results and toxic doses are left out. No stated cut-off is given here; in the data, active means T/C of 150% or more; inactive means T/C below 125%.
Assign a class; possible classes are active, inactive

These solved cases illustrate the format of a correct answer.
compound | class-assignment
C=COC(=O)N(C)C | inactive
COc1cccc(CCNC(=O)CC#N)c1OC | inactive
CC(=O)OCC(Br)C(Br)COC(C)=O (configuration not stated) | inactive
O=C(O)/C=C\C(=O)Nc1ccccc1NC(=O)/C=C/C(=O)O | inactive
O=S(=O)(/C=C/c1ccc(Cl)cc1)c1ccccc1 | inactive
CCCn1nnc2ccccc2c1=Nc1ccccc1Cl | inactive
CS(=O)(=O)Nc1nc2ccccc2[nH]1 | inactive
CN1CCN=C(c2ccccc2)c2cc(Cl)ccc21 | inactive

Ask | Fill in: this test's call for CC[N+]1=NC2CCCC(C2)C1 (configuration not stated) is ___
Reply | inactive

Ask | Please do the same for "CCNc1cc(Cl)c(C(=O)O)cc1[N+](=O)[O-]" as well.
Reply | inactive

Ask | // repeat for CC(NC(=O)C(N)CSC(c1ccccc1)(c1ccccc1)c1ccccc1)C(=O)O (configuration not stated) and report
Reply | active

Ask | Similarly, "CCC(=O)c1cc(OC)cc(OC)c1" ?
Reply | inactive

Ask | What would you report for "COC(=O)C(C)(C)O" ?
Reply | inactive

Ask | Same lookup for "C1OCC2CCC(CC2)CO1" , please.
Reply | inactive

Ask | Also "O=C(NO)C(=O)NO" ?
Reply | inactive

* * *

test system: L1210 leukemia ip in BDF1 mice, survival T/C; experiment: NCI In Vivo Anticancer Drug Screen. Data for tumor model L1210 Leukemia (intraperitoneal) in B6D2F1 (BDF1) mice; conditions: endpoint: mean survival time; dose: 400.0 mg/kg/injection; schedule: Q01DX001 (ip); vehicle: saline with Tween-80; higher = longer survival
Toxic doses and inconclusive results are not listed.
parameter: T/C

compound | T/C
c1ccc(-c2cnnn2-c2ccccc2)cc1 | 105 % of control
O=C1c2cc([N+](=O)[O-])ccc2CCC1C(O)(C(F)(F)F)C(F)(F)F (configuration not stated) | 100 % of control
OC(CCl)C(O)C(O)C(O)CCl (configuration not stated) | 89 % of control
O=c1[nH][nH]c(=O)n1O | 104 % of control
CCCCCCC(CCCCCC)CCCCCC | 99 % of control
Cc1ccc(S(=O)(=O)OCC(C)C2CCC3C4CC=C5CC(Cl)CCC5(C)C4CCC23C)cc1 (configuration not stated) | 94 % of control

In the following, a different compound is considered.
Ask | Give T/C (L1210 leukemia ip in BDF1 mice, survival T/C) of the following compound: "Cc1ccc([N+](=O)[O-])c2ccccc12"
Reply | 97 % of control
